Reference source: the kinase profiling compilation of Christmann-Franck et al. (2016)

molecular target: TAOK2 (human); assay: KINOMEscan competition binding; conditions: compound 10.0 µM
measured attribute: kinase still bound, per cent of control
Just so you know, I need the unit written after the number.

Example entries begin here.
[
  {
    "smiles input": "COC(=O)Nc1ccc(-c2nc(N3CCOCC3)c3cnn(C4CCN(C(=O)OC)CC4)c3n2)cc1",
    "kinase still bound, per cent of control": "73%"
  },
  {
    "smiles input": "COc1ccc(-c2ccc3c(N4CCOCC4)nc(N4C[C@@H](C)O[C@@H](C)C4)nc3n2)cc1CO",
    "kinase still bound, per cent of control": "76%"
  },
  {
    "smiles input": "CC(C)n1nc(-c2cc3cc(O)ccc3[nH]2)c2c(N)ncnc21",
    "kinase still bound, per cent of control": "1.2%"
  }
]

Let us move to another entry and its kinase still bound, per cent of control.
Q. Would you mind telling me what kinase still bound, per cent of control value was observed for CCC(=O)N1CCN(c2ccc(-n3c(=O)ccc4cnc5ccc(-c6cnc7ccccc7c6)cc5c43)cc2C(F)(F)F)CC1 ?
A. 84%
